System: MALME-3M melanoma
assay comment: NCI tumour cell line growth inhibition, 48 h
endpoint label: log10(TGI) (log10 of the value in µM)
Please keep in mind that the values are log10 of TGI expressed in µM.

molecule: CSc1nc(NC2CC2)c2c(n1)Sc1nc3ccccc3n1N=C2
experimental system: MALME-3M melanoma
log10(TGI): 1.71
//
molecule: CC(=O)OC1CC[C@@]2(C)C(CC(OC3OC(CO)C(O)C(O)C3O)[C@]3(C)C2CCC24CC23CC[C@H]4C(C)CC(O)[C@@H](O)C(C)(C)O)C1(C)C (stereo partly specified)
experimental system: MALME-3M melanoma
log10(TGI): 1.27
//
molecule: Cc1cc(C)c2c(=O)n(CC(O)CN3CCN(c4ncccn4)CC3)sc2n1 (stereo unspecified)
experimental system: MALME-3M melanoma
log10(TGI): 1.57
//
molecule: C=CCCCN1C(=O)C2C3c4ccccc4C(C=O)(c4ccccc43)C2C1=O (stereo unspecified)
experimental system: MALME-3M melanoma
log10(TGI): 1.42
//
molecule: Cc1cc(CC(O)(C(F)(F)F)C(F)(F)F)cc(CC(O)(C(F)(F)F)C(F)(F)F)n1
experimental system: MALME-3M melanoma
log10(TGI): 0.63

[in] I have this molecule here, Brc1ccc2c(c1)[C@H]1CCc3c([nH]c4ccccc34)[C@H]1N2 , and I need its recorded log10(TGI).
[out] 1.36

[in] Okay, and Oc1cccc(-c2cc(=S)ss2)c1 ?
[out] 1.51

[in] Okay, and CCCCOP(=O)(OCCCC)C(NS(=O)(=O)c1ccccc1)(C(=O)OCC)C(F)(F)F (stereo unspecified) ?
[out] 1.66

[in] Okay, and COc1ccc(/C=C/C=C2C(=O)NC(=S)NC2=O)cc1 ?
[out] 1.15

###

Test system: TK-10 renal
assay comment: NCI tumour cell line growth inhibition, 48 h
endpoint label: TGI

Examples from the recorded data:
compound: C=C1c2c(C)nn(-c3ccccc3)c2N(C)C23C[C@@H]1C1(C)c4c(C)nn(-c5ccccc5)c4N(C)C(C)(C[C@H]12)C3 (stereo partly drawn)
TGI: 24.5 µM
--
compound: COC(=O)C(=O)C(C(=O)C(=O)Nc1ccc(Cl)cc1Cl)c1nc2ccc(Cl)cc2[nH]c1=O (stereo not drawn)
TGI: > 100 µM

Kindly review the next compound as well.
[in] I have this compound here, CC(=O)O/N=C1\C=Cc2c(no[n+]2[O-])C1=O , and I need its recorded TGI.
[out] 29 µM

###

Tested on: MOLT-4 leukemia
assay comment: NCI tumour cell line growth inhibition, 48 h
Item-by-item account of log10 of TGI
Please keep in mind that the values are log10 of TGI expressed in µM.

Examples from the recorded data:
compound: O=C(NCCc1ccc(F)cc1)c1cc(/C=C/c2cc(O)ccc2O)ccc1O
experimental system: MOLT-4 leukemia
log10 of TGI: 0.84

compound: COc1cc(CNc2nc3cc(C(F)(F)F)ccc3nc2C(=O)O)cc(OC)c1OC
experimental system: MOLT-4 leukemia
log10 of TGI: 1.76

compound: CC(C)CCC[C@@H](C)C1CCC2[C@@H]3CC=C4C[C@@H](OC(=O)CCC(=O)NCC[N+](C)(C)CCCS(=O)(=O)[O-])CC[C@]4(C)C3CC[C@@]21C (some centres not stated)
experimental system: MOLT-4 leukemia
log10 of TGI: 1.60

compound: CO/C=C(/C(=O)OC)c1ccccc1[C@H]1C[C@@H]1c1ccc(OC)cc1
experimental system: MOLT-4 leukemia
log10 of TGI: 1.87

compound: COc1cc(Oc2cnc3cc(N)cc(N)c3n2)cc(OC)c1OC
experimental system: MOLT-4 leukemia
log10 of TGI: 1.72

[in] I have this compound here, O=C1c2cc(Br)ccc2-c2c1c1ccccc1c(=O)n2CCCCl , and I need its recorded log10 of TGI.
[out] 0.93

[in] Okay, and COC1=C(C(=O)OC(C)(C)C)C23CCCCC2(C(C(=O)OC(C)(C)C)=C(OC)C3C(=O)OC(C)(C)C)C1C(=O)OC(C)(C)C (configuration not stated) ?
[out] 1.65

[in] Okay, and c1ccc2c(c1)N=c1ccccc1=P21c2ccccc2Nc2ccccc21 ?
[out] 0.22

###

Item-by-item account of TGI
System: A498 renal
assay comment: NCI tumour cell line growth inhibition, 48 h

Examples from the recorded data:
molecule: CC1CN=C(c2ccc3c(c2)Cc2cc(C4=NCC(C)N4)ccc2-3)N1 (centres undefined)
TGI: > 100 µM

molecule: CC(C)=CCC[C@@H](C)c1c(O)c(O)c(C)c2nc3ccccc3nc12
TGI: 7.97 µM

molecule: CCCCC(=O)Nc1ccc2cc(C(=O)OC)c(=O)[nH]c2n1
TGI: > 100 µM

molecule: CCCCc1c2c(nc3c1CCc1cc(C=O)c(N)nc1-3)/C(=C/c1ccccc1)CCC2
TGI: 47.5 µM

molecule: CC(C)(C)NC(=O)C12C3C4C1C1C2C3C41I (centres undefined)
TGI: > 100 µM

[in] For A498 renal, provide TGI of NC(=O)NC1=NCCC(=O)N1CCc1c[nH]c2ccccc12 please.
[out] 46.1 µM

[in] Okay, and NCCCCN(CCCN)C(=O)OCc1ccccc1 ?
[out] > 100 µM

[in] Okay, and O=c1c2ccccc2oc2nccnc12 ?
[out] > 100 µM

###

Test system: SF-268 CNS
assay comment: NCI tumour cell line growth inhibition, 48 h
endpoint label: TGI

Examples from the recorded data:
molecule: CC([C@H]1CCC2C3CCC4C(=O)C(NC=O)=CC[C@]4(C)C3CC[C@@]21C)N(C)C (stereo not given in full)
experimental system: SF-268 CNS
observed value: 5.48 µM
//
molecule: COc1cc(C=C2C(=O)OC(C)(C)OC2=O)cc(OC)c1OC
experimental system: SF-268 CNS
observed value: > 100 µM
//
molecule: O=C(NC12CC3CC(CC(C3)C1)C2)n1cnc2cncnc21
experimental system: SF-268 CNS
observed value: > 100 µM
//
molecule: CS(=O)(=O)c1ccc(C2=C(c3ccccc3)C(=O)OC2)cc1
experimental system: SF-268 CNS
observed value: > 100 µM
//
molecule: CC(=O)Nc1ccc(S(=O)(=O)/N=c2/sc(S(N)(=O)=O)nn2C)cc1
experimental system: SF-268 CNS
observed value: > 100 µM
//
molecule: Nc1nc(-c2ccccc2)cc(-c2ccc(F)cc2)c1-c1ccc(Cl)cc1
experimental system: SF-268 CNS
observed value: > 100 µM
//
molecule: Cc1cccc2c1NC(c1c(C)[nH]c3ccccc13)C2 (stereo not given)
experimental system: SF-268 CNS
observed value: > 100 µM
//
molecule: O=C(/C=C/c1ccco1)c1ccc(Nc2ccnc3cc(Cl)ccc23)cc1
experimental system: SF-268 CNS
observed value: > 100 µM
//
molecule: N#CCCN(CCN(CCN(C(=O)Nc1ccccc1)c1ccccc1)C(=O)Nc1ccccc1)C(=O)Nc1ccccc1
experimental system: SF-268 CNS
observed value: > 100 µM
//
molecule: CO/C=C(/C(=O)OC)c1ccccc1[C@H]1C[C@@H]1c1ccc(OC)cc1
experimental system: SF-268 CNS
observed value: 86.3 µM

[in] I have this molecule here, Nc1ccc(Cl)cc1.Nc1ccc(Cl)cc1.Nc1ccc(Cl)cc1.O=C([O-])C(=O)[O-].O=C([O-])C(=O)[O-].[H+].[Ru+5] , and I need its recorded TGI.
[out] > 100 µM

[in] Okay, and CCCCc1c2c(nc3c1CCc1cc(C=O)c(N)nc1-3)/C(=C/c1ccccc1)CCC2 ?
[out] > 100 µM

[in] Okay, and COC(=O)C1=C(SC)SC2(C(=O)OC)C3C=C(C)C4C(N13)C42C(=O)OC (stereo not given) ?
[out] > 100 µM

[in] Okay, and Brc1ccc2c(c1)[C@H]1CCc3c([nH]c4ccccc34)[C@H]1N2 ?
[out] 32.4 µM

[in] Okay, and CCC(C)CNC1=C(NC(C)=O)C(=O)c2ccccc2C1=O (stereo not given) ?
[out] > 100 µM

[in] Okay, and Cc1cc([C@H](C#N)c2nc3ccccc3s2)nc(Cl)n1 ?
[out] 24 µM

[in] Okay, and Nc1c2c(nc3ccccc13)-c1ccccc1CCC2 ?
[out] 37.2 µM

[in] Okay, and CN(C)c1ccc(C(=C2C=CC(=[N+](C)C)C=C2)c2c(O)c(S(=O)(=O)[O-])cc3cc(S(=O)(=O)O)ccc23)cc1 ?
[out] > 100 µM

[in] Okay, and COc1cc(OC)cc(-c2n[nH]nc2-c2ccc3c(c2)OCO3)c1 ?
[out] > 100 µM

[in] Okay, and CCOC(=O)C(C(N)=O)c1nc2cc([N+](=O)[O-])ccc2nc1/C=C(\O)c1ccc(C)cc1 (stereo not given) ?
[out] 35.8 µM

###

Test system: SK-MEL-28 melanoma
assay comment: NCI tumour cell line growth inhibition, 48 h
endpoint label: TGI

[in] I have this molecule here, Cc1c(Br)cccc1NC(=O)c1sc2nc3c(cc2c1N)CN(Cc1ccccc1)CC3 , and I need its recorded TGI.
[out] > 50 µM

[in] Okay, and O=c1[nH]c(=O)n(COCCO)cc1-c1ccccc1 ?
[out] > 100 µM

[in] Okay, and CCCCCCCCOCC(O)COC (stereo not drawn) ?
[out] > 100 µM
